Assay Target: unrelated Fc-fused recombinant protein
Protocol Text: ELISA, negative control Fc protein
Assay Readout: ELISA Fc Control (RLU)

Answered cases to consult:
ISOP193FR9P1F8 (designed binder, not shown: small tags and cut ends) LPAPKNLVVSRVTEDSARLSWTAPDAAFDSFDINYFENELGGEAIVLTVPGSERSYDLTGLKPGTEYLVTIYGVKGCDWSDPLSAIFTT	25700
ISOP193GR9P1A7 (designed binder, not shown: small tags and cut ends) LPAPKNLVVSRVTEDSARLSWTAPDAAFDSFAIFYHEFANPGEAIDLPVPGSERSYDLTGLKPGTEYDVRIYGVKGGTASIPLDAEFTT	1040
ISOP193GR9P1H2 (designed binder, not shown: small tags and cut ends) LPAPKNLVVSRVTEDSARLSWTAPDAAFDSFEIPYIEVETIGEAIWLHVPGSERSYDLTGLKPGTEYSVGINGVKGGHTSNPLSARFTT	1360
ISOP193FR9P1H9 (designed binder, not shown: small tags and cut ends) LPAPKNLVVSRVTEDSARLSWTAPDAAFDSFEIYYDELRNPGEAIVLTVPGSERSYDLTGLKPGTEYAVTIYGVKGGRYSPPLSAIFTT	2000
ISOP193HR9P1D8 (designed binder, not shown: small tags and cut ends) LPAPKNLVVSRVTEDSARLSWTAPDAAFDSFDIYYLESGRDGEAIVLTVPGSERSYDLTGLKPGTEYLVSIYGVKGCGYSDPLSAIFTT	10900
ISOP193AR9P1C10 (designed binder, not shown: small tags and cut ends) LPAPKNLVVSRVTEDSARLSWPNHISIFDSFLIQYQESEKVGEAIVLTVPGSERSYDLTGLKPGTEYTVSIYGVGRFYTVFDSNPLSAIFTT	3520

1. ISOP193GR9P1G9 (designed binder, not shown: small tags and cut ends) LPAPKNLVVSRVTEDSARLSWTAPDAAFDSFAIFYHEFANSGEAIDLPVPGSERSYDLTGLKPGTEYDVRIYGVKGGTASIPLDAEFTT
2. ISOP193HR9P1D11 (designed binder, not shown: small tags and cut ends) LPAPKNLVVSRVTEDSARLSWTAPDAAFDSFDIYYYELRLGGEAIVLTVPGSERSYDLTGLKPGTEYLVTIYGVKVCEQSYPLSAIFTT
ELISA Fc Control (RLU) comparison. Which is larger, 1 or 2 ? Use the label to indicate which entry you chose. 2
(2: 48700 RLU, 1: 960 RLU)
